Measured normalized growth, listed per entry.
# test: chemical genetic growth profiling, strain panel (AID 1159580);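 further: tested at 20 µM; growth read once vehicle control cultures reached saturation at 30 °C; 1 = growth at the plate median or of vehicle wells; lower values mean less growth of the strain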
# test-settings: S. cerevisiae deletion strains, growth OD, locus YER133W, strain GLC7, stronger effect = lower value
In all, about 5,500 compounds went through this assay and about 2,000 (36%) were called active. Inconclusive results (about 18%) are left out. This is one part of the list.

Solved cases (2 shown):
INSERT INTO results (compound, measured_parameter, value_observed) VALUES
  ('C/C(=N/Nc1ccccc1)c1cc(Cl)cc(Cl)c1O', 'normalized growth', '0.825 (inactive)'),
  ('S=C(Nc1cc(Cl)c(Cl)cc1Cl)Nc1ccccc1Br', 'normalized growth', '0.87 (inactive)');

Query: Give its normalized growth value. Item: Cc1onc(-c2ccccc2)c1C(=O)Sc1ccc(C(F)(F)F)cn1
Reply: 0.249 (active)

Query: So what's the measured normalized growth for this one? O=S(=O)(Nc1ccc(Oc2ccc(OC(F)(F)F)cc2)cc1)c1cccc(Cl)c1
Reply: 0.933 (inactive)

Query: Return reported normalized growth; argument: O=C1/C(=C/c2cccs2)COc2ccccc21
Reply: 0.765 (inactive)

Query: Quick one: normalized growth for COc1ccc(OC)c(-c2ccn[nH]2)c1OCc1ccccc1 ?
Reply: 0.886 (inactive)

Query: Would you kindly share the measured normalized growth for S=C(NNc1ccccc1)Nc1cc(Cl)ccc1Cl ?
Reply: 0.958 (inactive)

Query: Value lookup for normalized growth; key = Cc1ccc(S(=O)(=O)Nc2ccc(Oc3ccc(F)cc3)cc2)cc1
Reply: 0.93 (inactive)
